# experimental_target: human TLR8 (Homo sapiens)
# Construct: HEK293 cells stably co-transfected with the appropriate hTLR, MD2, and secreted alkaline phosphatase (sAP); expressed in transfected cells; host or cells: HEK293 (HEK-Blue™)
# Sequence (Q9NR97 27-1041): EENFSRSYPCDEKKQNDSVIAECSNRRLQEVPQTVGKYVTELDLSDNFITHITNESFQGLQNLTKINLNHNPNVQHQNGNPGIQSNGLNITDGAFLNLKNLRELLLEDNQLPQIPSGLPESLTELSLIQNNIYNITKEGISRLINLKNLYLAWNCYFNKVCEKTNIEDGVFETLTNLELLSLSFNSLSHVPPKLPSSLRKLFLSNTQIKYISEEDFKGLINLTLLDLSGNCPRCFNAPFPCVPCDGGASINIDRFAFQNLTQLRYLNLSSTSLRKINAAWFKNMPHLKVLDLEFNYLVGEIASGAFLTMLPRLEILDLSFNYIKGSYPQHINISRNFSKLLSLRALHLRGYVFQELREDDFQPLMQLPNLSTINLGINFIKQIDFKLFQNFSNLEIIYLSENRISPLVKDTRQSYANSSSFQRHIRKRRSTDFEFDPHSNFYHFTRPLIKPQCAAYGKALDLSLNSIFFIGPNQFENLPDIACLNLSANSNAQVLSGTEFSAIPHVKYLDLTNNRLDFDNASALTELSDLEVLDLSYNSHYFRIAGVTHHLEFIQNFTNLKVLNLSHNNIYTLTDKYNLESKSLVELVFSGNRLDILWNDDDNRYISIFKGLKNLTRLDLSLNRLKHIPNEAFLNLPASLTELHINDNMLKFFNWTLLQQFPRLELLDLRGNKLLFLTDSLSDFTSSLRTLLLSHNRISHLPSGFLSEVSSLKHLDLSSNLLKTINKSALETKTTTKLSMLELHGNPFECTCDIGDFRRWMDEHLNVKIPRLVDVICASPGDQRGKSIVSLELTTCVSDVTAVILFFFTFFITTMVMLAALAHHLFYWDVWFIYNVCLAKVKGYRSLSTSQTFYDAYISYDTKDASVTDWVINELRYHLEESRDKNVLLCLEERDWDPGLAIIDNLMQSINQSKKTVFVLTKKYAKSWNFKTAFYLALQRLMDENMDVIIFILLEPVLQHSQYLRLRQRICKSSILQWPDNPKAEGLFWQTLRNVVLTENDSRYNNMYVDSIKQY
# experimental_protocol: human TLR8-specific HEK-Blue reporter gene assay (NF-κB induction)
# Assay type: cell-based
# test_settings: human TLR8-specific reporter gene assays, Table 1; read-out: Agonistic Activity EC50 (μM) TLR8
measurement_name: EC50 (µM)

For orientation, consider the following solved cases.
molecule	experimental_target	recorded_number
CCCCNc1cc2ccccc2nc1N	human TLR8 (Homo sapiens)	4.28
CC(C)CCOc1cc2ccccc2nc1N	human TLR8 (Homo sapiens)	50
CCCCOc1cc2ccccc2nc1N	human TLR8 (Homo sapiens)	2.18

1: CC(C)COc1cc2ccccc2nc1N
2: CCC/C=C/c1cc2ccccc2nc1N [Compound 14d, (E)-3-(Pent-1-en-1-yl)quinolin-2-amine]
3: CCCCCOc1cc2ccccc2nc1N
4: CCCC#Cc1cc2ccccc2nc1N [Compound 14f, 3-(Pent-1-yn-1-yl)quinolin-2-amine]
Asked: Arrange by EC50, high to low. # answer = labels listed in requested order
Given back: 1, 4, 3, 2

From: patent US10654807B2
